System: Plasmodium falciparum
Assay: Reduction in Plasmodium falciparum FCK2 in human erythrocyte culture after 48 hrs
Assay type: functional, organism-based
Activity calls are given as the source filed them. No cut-off for these calls is given here.

{"structureSmiles": "CO[C@H]1/C=C/O[C@@]2(C)Oc3c(C)c(O)c4c(O)c(c(/C=N/N5CCN(C)CC5)c(O)c4c3C2=O)NC(=O)/C(C)=C\\C=C\\[C@H](C)[C@H](O)[C@@H](C)[C@@H](O)[C@@H](C)[C@H](OC(C)=O)[C@@H]1C", "targetUnderTest": "Plasmodium falciparum", "Activity": "inactive"}
{"structureSmiles": "CCC[C@@H]1C[C@@H](C(=O)N[C@@H]([C@H]2O[C@H](SC)[C@H](O)[C@@H](O)[C@H]2O)[C@H](C)Cl)N(C)C1", "targetUnderTest": "Plasmodium falciparum", "Activity": "inactive"}
{"structureSmiles": "O=C(N[C@H](CO)[C@H](O)c1ccc([N+](=O)[O-])cc1)C(Cl)Cl", "targetUnderTest": "Plasmodium falciparum", "Activity": "inactive"}
{"structureSmiles": "CN(C)[C@@H]1C(O)=C(C(N)=O)C(=O)[C@@]2(O)C(O)=C3C(=O)c4c(O)cccc4[C@@](C)(O)[C@H]3C[C@@H]12", "targetUnderTest": "Plasmodium falciparum", "Activity": "inactive"}
